Hey, just so you know, these numbers are from patent US20100016274A1.

For each entry below, report its IC50 value.
target: cannabinoid receptor-2 (CB2), CB2R-containing cell membrane; hCB2 receptors (Homo sapiens, UniProt P34972)
Construct: purchased Applied Cell Sciences Inc, Rockville, Md
Sequence (P34972 whole entry): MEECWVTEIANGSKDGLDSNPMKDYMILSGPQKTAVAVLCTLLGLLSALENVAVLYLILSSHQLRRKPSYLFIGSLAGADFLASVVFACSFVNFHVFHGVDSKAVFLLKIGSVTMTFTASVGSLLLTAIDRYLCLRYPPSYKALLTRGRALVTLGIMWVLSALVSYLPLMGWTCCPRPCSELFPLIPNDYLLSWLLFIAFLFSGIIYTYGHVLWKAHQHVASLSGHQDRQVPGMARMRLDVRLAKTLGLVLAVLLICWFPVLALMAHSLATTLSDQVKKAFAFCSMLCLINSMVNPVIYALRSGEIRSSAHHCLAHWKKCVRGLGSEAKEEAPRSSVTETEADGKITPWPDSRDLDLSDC
measurement-description: Cannabinoid Receptor-2 (CB2) Binding Assay, Method A using cell membranes (displacement of 3H-CP55940)
test-conditions: displacement of 3H-CP55940 (1 nM), CB2R-containing cell membrane

For orientation, consider the following solved cases.
{"compound": "CC(C)(C)OC(=O)CC(C(=O)NCc1cccc(C(F)(F)F)c1)N1C(=O)C(N2C(=O)OCC2c2ccccc2)C1C=Cc1ccccc1 (stereo not drawn) [Example 19F]", "quantity-name": "IC50", "assay-result": "<1 µM"}
{"compound": "Cc1ccc(C2(NC(=O)C(CCC(=O)N3CCN(C4CCCCC4)CC3)N3C(=O)C(N4C(=O)OCC4c4ccccc4)C3C=Cc3ccccc3)CCCC2)cc1 (stereo not drawn) [Example 42L]", "quantity-name": "IC50", "assay-result": "~10 µM"}
{"compound": "O=C(C(CCCc1ccccc1)N1C(=O)C(N2C(=O)OCC2c2ccccc2)C1C=Cc1ccccc1)N1CCN(C2CCCCC2)CC1 (stereo not drawn) [Example 62E]", "quantity-name": "IC50", "assay-result": "0.539 µM"}

Parameters: items (list). Returns: IC50 for each item.
1. O=C(CC(C(=O)N1CCN(CCc2ccccc2)CC1)N1C(=O)C(N2C(=O)OCC2c2ccccc2)C1C=Cc1ccccc1)NCc1cccc(C(F)(F)F)c1 (stereo not drawn) [Example 28A]
2. O=C(NC1(c2ccc(Cl)cc2)CC1)C(CCC(=O)N1CCN(C2CCCCC2)CC1)N1C(=O)C(N2C(=O)OCC2c2ccccc2)C1C=Cc1ccccc1 (stereo not drawn) [Example 42I]
3. O=C(CN1C(=O)C(c2cccs2)C1C=Cc1ccccc1)OCc1ccccc1 (stereo not drawn) [Example 70B]

## Output
1: <10 µM; 2: ~10 µM; 3: ~1 µM

Hello, I would appreciate it if you could give IC50 for each entry below.
1. CC(C)(C)OC(=O)CCC(C(=O)NCc1cccc(C(F)(F)F)c1)N1C(=O)C(N2C(=O)OCC2c2ccccc2)C1C=Cc1ccccc1 (stereo not drawn) [Example 19H]
2. O=C(NCc1cccc(C(F)(F)F)c1)C(CC(=O)N1CCC(N2CCCCC2)CC1)N1C(=O)C(N2C(=O)OCC2c2ccccc2)C1C=Cc1ccccc1 (stereo not drawn) [Example 31A]
3. O=C(NC1(c2cccc(F)c2)CCCC1)C(CCC(=O)N1CCN(C2CCCCC2)CC1)N1C(=O)C(N2C(=O)OCC2c2ccccc2)C1C=Cc1ccccc1 (stereo not drawn) [Example 42H]
4. O=C(NC1(c2ccc(Cl)cc2)CCCC1)C(CCC(=O)N1CCN(C2CCCCC2)CC1)N1C(=O)C(N2C(=O)OCC2c2ccccc2)C1C=Cc1ccccc1 (stereo not drawn) [Example 42J]
5. Cc1ccc(C2(NC(=O)C(CCC(=O)N3CCN(C4CCCCC4)CC3)N3C(=O)C(N4C(=O)OCC4c4ccccc4)C3C=Cc3ccccc3)CC2)cc1 (stereo not drawn) [Example 42K]
6. COc1ccc(C2(NC(=O)C(CCC(=O)N3CCN(C4CCCCC4)CC3)N3C(=O)C(N4C(=O)OCC4c4ccccc4)C3C=Cc3ccccc3)CC2)cc1 (stereo not drawn) [Example 42M]

## Output
1. <1 µM
2. 0.379 µM
3. ~10 µM
4. ~10 µM
5. ~10 µM
6. ~10 µM
